# test.target: T1, human SLITRK6 extracellular domain linked to his tag (human, UniProt Q9H5Y7 27-608)
# T1 construct: extracellular domain; also called huSLITRK6; Hu SLITRK6; not shown: his tag
# assay.info: BLI; antigen ECD-his on anti-his tips, antibody as analyte; 1:1 fit;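 note: antibody at several concentrations, 180 s association then 300 s dissociation in Tris buffer at pH 6 or 7.5, rate constants from global fitting, KD computed as koff/kon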
Measured kon, listed per entry for reference.
reported.endpoint: kon (M⁻¹ s⁻¹)

binder	result.units	reported.result
hu1H2-13 (antibody, V domains shown) VH: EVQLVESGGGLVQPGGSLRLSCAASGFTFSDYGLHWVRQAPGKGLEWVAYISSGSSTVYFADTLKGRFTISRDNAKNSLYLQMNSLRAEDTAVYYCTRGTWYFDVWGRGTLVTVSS VL: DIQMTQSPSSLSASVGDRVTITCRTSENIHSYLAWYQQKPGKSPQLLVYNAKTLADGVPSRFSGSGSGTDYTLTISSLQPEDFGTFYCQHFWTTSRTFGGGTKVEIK	M⁻¹ s⁻¹	480000
Sirtratumab (antibody, V domains shown, Prior-art benchmark antibody; also called Sirtratuzumab) VH: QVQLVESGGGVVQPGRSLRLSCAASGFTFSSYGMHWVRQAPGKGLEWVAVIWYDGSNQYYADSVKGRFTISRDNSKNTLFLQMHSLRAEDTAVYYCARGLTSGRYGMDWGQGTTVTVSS VL: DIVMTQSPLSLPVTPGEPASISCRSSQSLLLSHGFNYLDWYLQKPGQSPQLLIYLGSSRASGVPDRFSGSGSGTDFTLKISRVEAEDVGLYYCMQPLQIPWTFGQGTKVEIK	M⁻¹ s⁻¹	831000
hu1H2-03 (antibody, V domains shown, see m20) VH: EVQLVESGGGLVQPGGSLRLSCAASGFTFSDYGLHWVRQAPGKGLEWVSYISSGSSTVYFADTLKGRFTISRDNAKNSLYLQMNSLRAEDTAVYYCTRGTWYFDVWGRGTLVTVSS VL: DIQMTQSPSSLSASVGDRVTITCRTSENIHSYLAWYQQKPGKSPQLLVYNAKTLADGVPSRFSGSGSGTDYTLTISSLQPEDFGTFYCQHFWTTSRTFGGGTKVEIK	M⁻¹ s⁻¹	480000
